meta.source: the supplement of paper PMC11061612

# Tested on: KARPAS-231 (B-Cell Non-Hodgkin's Lymphoma)
# METHOD: Bliss excess, mean over the matrix (fraction); higher = more synergy
Examples of molecules with documented Bliss excess follow.

{"MOLECULE": "Cc1c2c(nn1C)CSCc1cc(n(C)n1)CSc1cc(c3ccccc3c1)OCCCc1c(C(=O)O)n(C)c3c-2c(Cl)ccc13 [AZD5991] + C=CCn1c(=O)c2cnc(Nc3ccc(N4CCN(C)CC4)cc3)nc2n1-c1cccc(C(C)(C)O)n1 [AZD1775] (first compound max 1 µM, partner max 1 µM)", "Bliss excess": 0.0195}
{"MOLECULE": "Cc1c2c(nn1C)CSCc1cc(n(C)n1)CSc1cc(c3ccccc3c1)OCCCc1c(C(=O)O)n(C)c3c-2c(Cl)ccc13 [AZD5991] + C1CN(CCC1(C(=O)N[C@@H](CCO)C2=CC=C(C=C2)Cl)N)C3=NC=NC4=C3C=CN4 [Capivasertib] (first compound max 1 µM, 7x7, partner max 3 µM)", "Bliss excess": -0.0402}
{"MOLECULE": "Cc1c2c(nn1C)CSCc1cc(n(C)n1)CSc1cc(c3ccccc3c1)OCCCc1c(C(=O)O)n(C)c3c-2c(Cl)ccc13 [AZD5991] + CN(C)CCCOc1ccc(-c2ccc3ncc4c(c3c2)n(C2CCOCC2)c(=O)n4C)cn1 [AZD0156] (first compound max 1 µM, 7x7, partner max 1 µM)", "Bliss excess": 0.041}
{"MOLECULE": "COc1cccc(OCCCN)c1-c1cc(Nc2cnc(C#N)cn2)n[nH]1 [Prexasertib] + C=CCn1c(=O)c2cnc(Nc3ccc(N4CCN(C)CC4)cc3)nc2n1-c1cccc(C(C)(C)O)n1 [AZD1775] (first compound max 1 µM, partner max 1 µM)", "Bliss excess": 0.0482}

* * *

# System: NCI-H28 (Mesothelioma)
# METHOD: Bliss excess, mean over the matrix (fraction); higher = more synergy

{"MOLECULE": "C=CCn1c(=O)c2cnc(Nc3ccc(N4CCN(C)CC4)cc3)nc2n1-c1cccc(C(C)(C)O)n1 [AZD1775] + C1CN(CCC1(C(=O)N[C@@H](CCO)C2=CC=C(C=C2)Cl)N)C3=NC=NC4=C3C=CN4 [Capivasertib] (first compound max 3 µM, partner max 3 µM)", "Bliss excess": -0.0725}
{"MOLECULE": "CCc1c2c(nc3ccc(O)cc13)-c1cc3c(c(=O)n1C2)COC(=O)[C@]3(O)CC [SN-38] + CN(C)CCCOc1ccc(-c2ccc3ncc4c(c3c2)n(C2CCOCC2)c(=O)n4C)cn1 [AZD0156] (first compound max 0.3 µM, 7x7, partner max 1 µM)", "Bliss excess": -0.0839}
{"MOLECULE": "CC1(C)CCC(CN2CCN(c3ccc(C(=O)NS(=O)(=O)c4ccc(NCC5CCOCC5)c([N+](=O)[O-])c4)c(Oc4cnc5[nH]ccc5c4)c3)CC2)=C(c2ccc(Cl)cc2)C1 [Venetoclax] + Cn1cnc2c(F)c(Nc3ccc(Br)cc3Cl)c(C(=O)NOCCO)cc21 [Selumetinib] (first compound max 1 µM, 7x7, partner max 3 µM)", "Bliss excess": -0.0449}

* * *

# Test system: NB14 (Neuroblastoma)
# METHOD: Bliss excess, mean over the matrix (fraction); higher = more synergy
Examples of compounds with documented Bliss excess follow.
MEASURED_ENDPOINT: Bliss excess

{"COMPOUND": "COc1cccc(OCCCN)c1-c1cc(Nc2cnc(C#N)cn2)n[nH]1 [Prexasertib] + C=CCn1c(=O)c2cnc(Nc3ccc(N4CCN(C)CC4)cc3)nc2n1-c1cccc(C(C)(C)O)n1 [AZD1775] (first compound max 1 µM, partner max 1 µM)", "EXPERIMENTAL_RESULT": 0.0486}
{"COMPOUND": "CC1(C)CCC(CN2CCN(c3ccc(C(=O)NS(=O)(=O)c4ccc(NCC5CCOCC5)c([N+](=O)[O-])c4)c(Oc4cnc5[nH]ccc5c4)c3)CC2)=C(c2ccc(Cl)cc2)C1 [Venetoclax] + C=CCn1c(=O)c2cnc(Nc3ccc(N4CCN(C)CC4)cc3)nc2n1-c1cccc(C(C)(C)O)n1 [AZD1775] (first compound max 1 µM, partner max 1 µM)", "EXPERIMENTAL_RESULT": 0.0967}
{"COMPOUND": "CC1(C)CCC(CN2CCN(c3ccc(C(=O)NS(=O)(=O)c4ccc(NCC5CCOCC5)c([N+](=O)[O-])c4)c(Oc4cnc5[nH]ccc5c4)c3)CC2)=C(c2ccc(Cl)cc2)C1 [Venetoclax] + COc1cc(Nc2ncc3c(n2)-c2ccc(Cl)cc2C(c2c(F)cccc2OC)=NC3)ccc1C(=O)O [Alisertib] (first compound max 1 µM, 7x7, partner max 10 µM)", "EXPERIMENTAL_RESULT": 0.0448}
{"COMPOUND": "Cc1cc2ncnn2cc1Nc1ncc2c(n1)n(C1CCOCC1)c(=O)n2C [AZD7648] + O=C(c1cc(Cc2n[nH]c(=O)c3ccccc23)ccc1F)N1CCN(C(=O)C2CC2)CC1 [Olaparib] (first compound max 10 µM, 7x7, partner max 10 µM)", "EXPERIMENTAL_RESULT": -0.0534}
{"COMPOUND": "CCN(CCO)CCCOc1ccc2c(Nc3cc(CC(=O)Nc4cccc(F)c4)[nH]n3)ncnc2c1 [AZD2811] + C[C@@H]1COCCN1C2=NC(=NC(=C2)C3(CC3)[S@](=N)(=O)C)C4=C5C=CNC5=NC=C4 [AZD6738] (first compound max 1 µM, 7x7, partner max 10 µM)", "EXPERIMENTAL_RESULT": -0.0888}
{"COMPOUND": "Cc1cc2ncnn2cc1Nc1ncc2c(n1)n(C1CCOCC1)c(=O)n2C [AZD7648] + COc1cc([C@@H]2c3cc4c(cc3[C@@H](O[C@@H]3O[C@@H]5CO[C@@H](C)O[C@H]5[C@H](O)[C@H]3O)[C@H]3COC(=O)[C@H]23)OCO4)cc(OC)c1O [Etoposide] (first compound max 10 µM, 7x7, partner max 10 µM)", "EXPERIMENTAL_RESULT": 0.0704}
{"COMPOUND": "NC1(C(=O)N[C@@H](CCO)c2ccc(Cl)cc2)CCN(c2ncnc3[nH]ccc23)CC1 [Capivasertib] + COc1nnc2ccc(N3CCC(c4ccc(OCCN5CCN(C)C(=O)[C@H]5C)cc4)CC3)nn12 [AZD5153] (first compound max 10 µM, 7x7, partner max 1 µM)", "EXPERIMENTAL_RESULT": -0.0216}

* * *

# Test system: KARPAS-231 (B-Cell Non-Hodgkin's Lymphoma)
# METHOD: Bliss excess, mean over the matrix (fraction); higher = more synergy
Returns true if the recorded Bliss excess is greater than or equal to 0.03, and false otherwise.

{"COMPOUND": "NC1(C(=O)N[C@@H](CCO)c2ccc(Cl)cc2)CCN(c2ncnc3[nH]ccc23)CC1 [Capivasertib] + CCN(CCO)CCCOc1ccc2c(Nc3cc(CC(=O)Nc4cccc(F)c4)[nH]n3)ncnc2c1 [AZD2811] (first compound max 10 µM, 7x7, partner max 1 µM)", "ASSIGNED_LABEL": "false"}
{"COMPOUND": "C[C@@H](c1ccc2nccn2c1)n1nnc2ncc(-c3cnn(C)c3)nc21 [Savolitinib] + Cc1c2c(nn1C)CSCc1cc(n(C)n1)CSc1cc(c3ccccc3c1)OCCCc1c(C(=O)O)n(C)c3c-2c(Cl)ccc13 [AZD5991] (first compound max 1 µM, 7x7, partner max 1 µM)", "ASSIGNED_LABEL": "false"}
{"COMPOUND": "C=CCn1c(=O)c2cnc(Nc3ccc(N4CCN(C)CC4)cc3)nc2n1-c1cccc(C(C)(C)O)n1 [AZD1775] + C[C@@H]1COCCN1C2=NC(=NC(=C2)C3(CC3)[S@](=N)(=O)C)C4=C5C=CNC5=NC=C4 [AZD6738] (first compound max 1 µM, partner max 10 µM)", "ASSIGNED_LABEL": "true"}
{"COMPOUND": "COc1cc2c(cc1OCCCCCOc1cc3c(cc1OC)C(=O)N1C=C(C)C[C@H]1C=N3)N=C[C@@H]1CC(C)=CN1C2=O [SG3199] + O=C(c1cc(Cc2n[nH]c(=O)c3ccccc23)ccc1F)N1CCN(C(=O)C2CC2)CC1 [Olaparib] (first compound max 0.001 µM, 7x7, partner max 10 µM)", "ASSIGNED_LABEL": "false"}
{"COMPOUND": "C=CCn1c(=O)c2cnc(Nc3ccc(N4CCN(C)CC4)cc3)nc2n1-c1cccc(C(C)(C)O)n1 [AZD1775] + O=C(c1cc(Cc2n[nH]c(=O)c3ccccc23)ccc1F)N1CCN(C(=O)C2CC2)CC1 [Olaparib] (first compound max 1 µM, partner max 10 µM)", "ASSIGNED_LABEL": "false"}

* * *

# Test system: NCI-H28 (Mesothelioma)
# METHOD: combination Emax (second highest fraction inhibited in the dose matrix, 72 h); higher = more inhibition; extreme values may be limits of the assay
Examples of molecules with documented combination Emax follow.

{"MOLECULE": "Cc1nc(-c2cn3c(n2)-c2ccc(-c4cnn(C(C)(C)C(N)=O)c4)cc2OCC3)n(C(C)C)n1 [Taselisib] + O=C(Nc1ccc2[nH]nc(-c3ccncc3)c2c1)[C@@H]1CCN(CC(=O)N2CCN(c3ccc(-c4ncccn4)cc3)CC2)C1 [SCH772984] (first compound max 10 µM, 7x7, partner max 5 µM)", "TARGET": "NCI-H28 (Mesothelioma)", "combination Emax": 0.589}
{"MOLECULE": "CC1(C)CCC(CN2CCN(c3ccc(C(=O)NS(=O)(=O)c4ccc(NCC5CCOCC5)c([N+](=O)[O-])c4)c(Oc4cnc5[nH]ccc5c4)c3)CC2)=C(c2ccc(Cl)cc2)C1 [Venetoclax] + CN(C)CCCOc1ccc(-c2ccc3ncc4c(c3c2)n(C2CCOCC2)c(=O)n4C)cn1 [AZD0156] (first compound max 1 µM, 7x7, partner max 1 µM)", "TARGET": "NCI-H28 (Mesothelioma)", "combination Emax": 0.193}
{"MOLECULE": "Cc1cc2ncnn2cc1Nc1ncc2c(n1)n(C1CCOCC1)c(=O)n2C [AZD7648] + O=C(c1cc(Cc2n[nH]c(=O)c3ccccc23)ccc1F)N1CCN(C(=O)C2CC2)CC1 [Olaparib] (first compound max 10 µM, 7x7, partner max 10 µM)", "TARGET": "NCI-H28 (Mesothelioma)", "combination Emax": 0.131}
